Kindly supply the reported activity coefficient values for the records listed here.
- Method notes: activity coefficient (dimensionless); of the first substance listed, at infinite dilution; xn = mol fraction of the nth substance listed
- Applied conditions: 312.8 K; 101 kPa; Liquid; Chromatography; x1 = 0
Enter a number only.

Task item: Given c1ccccc1 [benzene] + CCCCCC[n+]1ccn(C)c1.FC(F)(F)C(F)(F)[P-](F)(F)(F)(C(F)(F)C(F)(F)F)C(F)(F)C(F)(F)F , state its recorded activity coefficient.
Reply: 0.517

Task item: Which activity coefficient reading was recorded for the compound ClC(Cl)Cl [trichloromethane] + CCCCCC[n+]1ccn(C)c1.FC(F)(F)C(F)(F)[P-](F)(F)(F)(C(F)(F)C(F)(F)F)C(F)(F)C(F)(F)F ?
Reply: 1.09

Task item: Field request: activity coefficient | item: CCCO [propan-1-ol] + CCCCCC[n+]1ccn(C)c1.FC(F)(F)C(F)(F)[P-](F)(F)(F)(C(F)(F)C(F)(F)F)C(F)(F)C(F)(F)F
Reply: 2.47

---

- Method notes: activity coefficient (dimensionless); of the first substance listed, at infinite dilution; xn = mol fraction of the nth substance listed
- Applied conditions: 323.1 K; 101 kPa; Liquid; Chromatography; x1 = 0
Measure name: activity coefficient
// return just the number, without any unit appended

Task item: Please report the recorded activity coefficient for CC(C)OC(C)C [diisopropyl ether] + CCCCCCCCCCn1cc[n+](CCCCCCCCCC)c1C.O=S(=O)([N-]S(=O)(=O)C(F)(F)F)C(F)(F)F .
Reply: 1.12

Task item: # lookup: activity coefficient of ClCCl [dichloromethane] + CCCCCCCCCCn1cc[n+](CCCCCCCCCC)c1C.O=S(=O)([N-]S(=O)(=O)C(F)(F)F)C(F)(F)F
Reply: 0.33

Task item: Which activity coefficient is listed for c1ccccc1 [benzene] + CCCCCCCCCCn1cc[n+](CCCCCCCCCC)c1C.O=S(=O)([N-]S(=O)(=O)C(F)(F)F)C(F)(F)F ?
Reply: 0.429

Task item: Which activity coefficient is reported for this molecule? CCC[N+](=O)[O-] [1-nitropropane] + CCCCCCCCCCn1cc[n+](CCCCCCCCCC)c1C.O=S(=O)([N-]S(=O)(=O)C(F)(F)F)C(F)(F)F
Reply: 0.504

Task item: Given Cc1cccc(C)c1 [1,3-dimethylbenzene] + CCCCCCCCCCn1cc[n+](CCCCCCCCCC)c1C.O=S(=O)([N-]S(=O)(=O)C(F)(F)F)C(F)(F)F , state its recorded activity coefficient.
Reply: 0.645

Task item: Recorded activity coefficient of CCC(C)=O [butanone] + CCCCCCCCCCn1cc[n+](CCCCCCCCCC)c1C.O=S(=O)([N-]S(=O)(=O)C(F)(F)F)C(F)(F)F , please.
Reply: 0.318

Task item: Any idea what activity coefficient was measured for CCCCO [butan-1-ol] + CCCCCCCCCCn1cc[n+](CCCCCCCCCC)c1C.O=S(=O)([N-]S(=O)(=O)C(F)(F)F)C(F)(F)F ?
Reply: 1.38

Task item: Item CCN(CC)CC [triethylamine] + CCCCCCCCCCn1cc[n+](CCCCCCCCCC)c1C.O=S(=O)([N-]S(=O)(=O)C(F)(F)F)C(F)(F)F has what recorded activity coefficient?
Reply: 3.67

Task item: Data request, read-out activity coefficient, for CO [methanol] + CCCCCCCCCCn1cc[n+](CCCCCCCCCC)c1C.O=S(=O)([N-]S(=O)(=O)C(F)(F)F)C(F)(F)F
Reply: 0.963

Task item: Need activity coefficient of C1CCCCCC1 [cycloheptane] + CCCCCCCCCCn1cc[n+](CCCCCCCCCC)c1C.O=S(=O)([N-]S(=O)(=O)C(F)(F)F)C(F)(F)F , thanks.
Reply: 3.17

---

- Method notes: activity coefficient (dimensionless); of the first substance listed, at infinite dilution; xn = mol fraction of the nth substance listed
- Applied conditions: 362.65 K; 101 kPa; Liquid; Chromatography; x1 = 0
I'd be grateful if you could share measured activity coefficient for these entries.
Simply state the number, no unit and no words.

Task item: Return reported activity coefficient; argument: CCCCCCCCCCCCCC [tetradecane] + CCCCn1cc[n+](C)c1.O=S(=O)([N-]S(=O)(=O)C(F)(F)C(F)(F)F)C(F)(F)C(F)(F)F
Reply: 91.5

Task item: Which activity coefficient is listed for C=O [methanal] + CCCCn1cc[n+](C)c1.O=S(=O)([N-]S(=O)(=O)C(F)(F)C(F)(F)F)C(F)(F)C(F)(F)F ?
Reply: 0.164

Task item: Can you share its activity coefficient? I mean this molecule: ClCCl [dichloromethane] + CCCCn1cc[n+](C)c1.O=S(=O)([N-]S(=O)(=O)C(F)(F)C(F)(F)F)C(F)(F)C(F)(F)F
Reply: 0.539

Task item: Which activity coefficient is reported for this molecule? CC#N [acetonitrile] + CCCCn1cc[n+](C)c1.O=S(=O)([N-]S(=O)(=O)C(F)(F)C(F)(F)F)C(F)(F)C(F)(F)F
Reply: 0.504

Task item: Which measured activity coefficient value corresponds to CCO [ethanol] + CCCCn1cc[n+](C)c1.O=S(=O)([N-]S(=O)(=O)C(F)(F)C(F)(F)F)C(F)(F)C(F)(F)F ?
Reply: 1.18

Task item: Which activity coefficient value is on record for C#CCCCC [1-hexyne] + CCCCn1cc[n+](C)c1.O=S(=O)([N-]S(=O)(=O)C(F)(F)C(F)(F)F)C(F)(F)C(F)(F)F ?
Reply: 2.64

Task item: I would be grateful if you could share the reported activity coefficient for CCCCCCCC [octane] + CCCCn1cc[n+](C)c1.O=S(=O)([N-]S(=O)(=O)C(F)(F)C(F)(F)F)C(F)(F)C(F)(F)F .
Reply: 15.5

Task item: Record request: activity coefficient value, item C=CCCCC [hex-1-ene] + CCCCn1cc[n+](C)c1.O=S(=O)([N-]S(=O)(=O)C(F)(F)C(F)(F)F)C(F)(F)C(F)(F)F
Reply: 5.24

Task item: // lookup activity coefficient for CCC(C)=O [butanone] + CCCCn1cc[n+](C)c1.O=S(=O)([N-]S(=O)(=O)C(F)(F)C(F)(F)F)C(F)(F)C(F)(F)F
Reply: 0.351

Task item: // activity coefficient lookup, key: ClC(Cl)Cl [trichloromethane] + CCCCn1cc[n+](C)c1.O=S(=O)([N-]S(=O)(=O)C(F)(F)C(F)(F)F)C(F)(F)C(F)(F)F
Reply: 0.79

Task item: Any idea what activity coefficient was measured for CCC=O [propanal] + CCCCn1cc[n+](C)c1.O=S(=O)([N-]S(=O)(=O)C(F)(F)C(F)(F)F)C(F)(F)C(F)(F)F ?
Reply: 0.522

Task item: Look up activity coefficient: CCC(C)CC [3-methylpentane] + CCCCn1cc[n+](C)c1.O=S(=O)([N-]S(=O)(=O)C(F)(F)C(F)(F)F)C(F)(F)C(F)(F)F
Reply: 7.62

Task item: Query: activity coefficient; subject: c1ccncc1 [pyridine] + CCCCn1cc[n+](C)c1.O=S(=O)([N-]S(=O)(=O)C(F)(F)C(F)(F)F)C(F)(F)C(F)(F)F
Reply: 0.45

Task item: Entry Cc1ccccc1 [toluene] + CCCCn1cc[n+](C)c1.O=S(=O)([N-]S(=O)(=O)C(F)(F)C(F)(F)F)C(F)(F)C(F)(F)F : reported activity coefficient = ?
Reply: 1.46

Task item: State the recorded activity coefficient for this entry: CCCCCCCCC [nonane] + CCCCn1cc[n+](C)c1.O=S(=O)([N-]S(=O)(=O)C(F)(F)C(F)(F)F)C(F)(F)C(F)(F)F
Reply: 21.8

Task item: Find the recorded activity coefficient belonging to c1ccsc1 [thiophene] + CCCCn1cc[n+](C)c1.O=S(=O)([N-]S(=O)(=O)C(F)(F)C(F)(F)F)C(F)(F)C(F)(F)F and report it.
Reply: 0.981

Task item: State the recorded activity coefficient for this entry: Cc1ccccc1C [1,2-dimethylbenzene] + CCCCn1cc[n+](C)c1.O=S(=O)([N-]S(=O)(=O)C(F)(F)C(F)(F)F)C(F)(F)C(F)(F)F
Reply: 1.97

Task item: Consider the molecule C1CCCCC1 [cyclohexane] + CCCCn1cc[n+](C)c1.O=S(=O)([N-]S(=O)(=O)C(F)(F)C(F)(F)F)C(F)(F)C(F)(F)F and give its measured activity coefficient.
Reply: 5.41

Task item: Value lookup for activity coefficient; key = CCCO [propan-1-ol] + CCCCn1cc[n+](C)c1.O=S(=O)([N-]S(=O)(=O)C(F)(F)C(F)(F)F)C(F)(F)C(F)(F)F
Reply: 1.35

Task item: Quick check: activity coefficient of CCOCC [diethyl ether] + CCCCn1cc[n+](C)c1.O=S(=O)([N-]S(=O)(=O)C(F)(F)C(F)(F)F)C(F)(F)C(F)(F)F ?
Reply: 1.65

Task item: Looking for the measured activity coefficient of CCCCCC [hexane] + CCCCn1cc[n+](C)c1.O=S(=O)([N-]S(=O)(=O)C(F)(F)C(F)(F)F)C(F)(F)C(F)(F)F , can you help?
Reply: 8.43

Task item: Entry CCCCCCCCCCCC [dodecane] + CCCCn1cc[n+](C)c1.O=S(=O)([N-]S(=O)(=O)C(F)(F)C(F)(F)F)C(F)(F)C(F)(F)F has what activity coefficient?
Reply: 50.9

Task item: Fill blank: measured activity coefficient of the molecule C1COCCO1 [1,4-dioxane] + CCCCn1cc[n+](C)c1.O=S(=O)([N-]S(=O)(=O)C(F)(F)C(F)(F)F)C(F)(F)C(F)(F)F is ____.
Reply: 0.576

Task item: Field request: activity coefficient | item: ClC(Cl)(Cl)Cl [tetrachloromethane] + CCCCn1cc[n+](C)c1.O=S(=O)([N-]S(=O)(=O)C(F)(F)C(F)(F)F)C(F)(F)C(F)(F)F
Reply: 2.33

Task item: # query: activity coefficient of entry CCCC(C)=O [pentan-2-one] + CCCCn1cc[n+](C)c1.O=S(=O)([N-]S(=O)(=O)C(F)(F)C(F)(F)F)C(F)(F)C(F)(F)F
Reply: 0.701

Task item: Tell me the measured activity coefficient of Cc1cccc(C)c1 [1,3-dimethylbenzene] + CCCCn1cc[n+](C)c1.O=S(=O)([N-]S(=O)(=O)C(F)(F)C(F)(F)F)C(F)(F)C(F)(F)F , please.
Reply: 2.09

The measured values listed here are drawn from the NIST ThermoML archive (doi:10.1021/je200195q).
